TARGET_OR_TEST_SYSTEM: Cytochrome P450 3A4 (Homo sapiens)
Sequence (P08684 whole entry): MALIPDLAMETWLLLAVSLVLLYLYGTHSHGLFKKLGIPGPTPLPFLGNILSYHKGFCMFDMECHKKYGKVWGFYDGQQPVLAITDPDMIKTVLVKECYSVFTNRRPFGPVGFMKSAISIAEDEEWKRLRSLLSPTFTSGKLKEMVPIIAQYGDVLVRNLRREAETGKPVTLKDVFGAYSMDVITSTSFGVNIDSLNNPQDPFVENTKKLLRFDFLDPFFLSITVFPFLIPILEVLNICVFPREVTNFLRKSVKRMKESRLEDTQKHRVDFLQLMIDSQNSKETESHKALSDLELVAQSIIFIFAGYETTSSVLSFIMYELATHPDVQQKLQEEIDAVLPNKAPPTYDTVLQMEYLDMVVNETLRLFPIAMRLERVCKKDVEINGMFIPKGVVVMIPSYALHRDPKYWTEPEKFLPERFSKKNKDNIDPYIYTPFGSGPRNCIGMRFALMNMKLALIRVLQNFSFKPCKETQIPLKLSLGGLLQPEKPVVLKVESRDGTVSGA
ASSAY_TEXT: Inhibition of CYP3A4 (unknown origin) using testosterone as substrate
Format: ADME
Catalogue of IC50 readings, one per entry.
REPORTED_PROPERTY: IC50 (nM)

[
  {
    "SMILES_REPR": "C[C@@H](Oc1ccc(-c2ccn[nH]2)cc1)c1cncc(-c2nc(Cl)c[nH]2)c1",
    "RELATION_SIGN": "=",
    "DATA_VALUE": 240
  },
  {
    "SMILES_REPR": "C[C@@H](Oc1ccc2ncc3c(c2c1)CCOC3)c1cncc(-c2nc(Cl)c[nH]2)c1",
    "RELATION_SIGN": "=",
    "DATA_VALUE": 570
  },
  {
    "SMILES_REPR": "C[C@@H](Oc1ccc2c(=O)cc3n(c2c1)CCOC3)c1cc(-n2ccc(OC(F)F)n2)cnn1",
    "RELATION_SIGN": ">",
    "DATA_VALUE": 10000
  }
]

---

TARGET_OR_TEST_SYSTEM: Cytochrome P450 1A2 (Homo sapiens)
Sequence (P05177 whole entry): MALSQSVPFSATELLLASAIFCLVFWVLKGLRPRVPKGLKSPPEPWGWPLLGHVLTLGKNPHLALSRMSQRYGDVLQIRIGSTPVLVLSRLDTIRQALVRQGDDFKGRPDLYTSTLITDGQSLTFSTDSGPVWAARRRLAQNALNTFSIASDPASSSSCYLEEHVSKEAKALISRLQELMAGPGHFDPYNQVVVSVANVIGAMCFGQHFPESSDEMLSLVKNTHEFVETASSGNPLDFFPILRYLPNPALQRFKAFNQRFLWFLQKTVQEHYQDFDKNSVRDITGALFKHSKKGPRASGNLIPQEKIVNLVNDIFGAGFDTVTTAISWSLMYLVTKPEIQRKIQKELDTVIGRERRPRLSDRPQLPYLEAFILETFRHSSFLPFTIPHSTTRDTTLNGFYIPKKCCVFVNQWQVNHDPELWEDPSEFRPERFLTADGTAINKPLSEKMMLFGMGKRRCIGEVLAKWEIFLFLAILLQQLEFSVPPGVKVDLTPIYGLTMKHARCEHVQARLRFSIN
IC50 overview

[
  {
    "SMILES_REPR": "C[C@@H](Oc1ccc2c(=O)cc3n(c2c1)CCOC3)c1cc(-n2ccc(Cl)n2)cnn1",
    "IC50": "> 10 µM"
  },
  {
    "SMILES_REPR": "C[C@@H](Oc1ccc2ncc3c(c2c1)CCOC3)c1cncc(-c2nc(Cl)c[nH]2)c1",
    "IC50": "< 10 µM"
  }
]

---

ASSAY_TEXT: Cytotoxicity against human primary hepatocytes in presence of serum
Assay type: toxicity, cell-based, Hepatocyte

[
  {
    "SMILES_REPR": "C[C@@H](Oc1ccc2c(=O)cc3n(c2c1)CCOC3)c1cc(-n2ccc(Cl)n2)cnn1",
    "IC50": "> 100 µM"
  }
]

---

ASSAY_TEXT: Clearance in human liver microsomes
Format: ADME, Microsome
Attribute: CLhep predicted

[
  {
    "MOLECULE": "C[C@@H](Oc1ccc2c(=O)cc3n(c2c1)CCOC3)c1cc(-n2ccc(Cl)n2)cnn1",
    "RELATION_SIGN": "=",
    "CLhep predicted / mL/min/kg": 5.3
  },
  {
    "MOLECULE": "C[C@@H](Oc1ccc(-c2ccn[nH]2)cc1)c1cncc(-c2nc(Cl)c[nH]2)c1",
    "RELATION_SIGN": "=",
    "CLhep predicted / mL/min/kg": 12
  },
  {
    "MOLECULE": "C[C@@H](Oc1ccc2c(=O)cc3n(c2c1)CCOC3)c1cncc(-c2nc(C(F)(F)F)c[nH]2)c1",
    "RELATION_SIGN": "=",
    "CLhep predicted / mL/min/kg": 16
  },
  {
    "MOLECULE": "CC(Oc1ccc2c(=O)cc3n(c2c1)CCOC3)c1cncc(-c2nc(Cl)c[nH]2)c1 (racemic)",
    "RELATION_SIGN": "=",
    "CLhep predicted / mL/min/kg": 13
  },
  {
    "MOLECULE": "C[C@@H](Oc1ccc2c(=O)cc3n(c2c1)CCOC3)c1cncc(-n2ccc(C(F)(F)F)n2)c1",
    "RELATION_SIGN": "=",
    "CLhep predicted / mL/min/kg": 18
  },
  {
    "MOLECULE": "C[C@@H](Oc1ccc2c(=O)cc3n(c2c1)CCOC3)c1cc(-n2ccc(C(F)(F)F)n2)cnn1",
    "RELATION_SIGN": "=",
    "CLhep predicted / mL/min/kg": 7
  },
  {
    "MOLECULE": "C[C@@H](Oc1ccc2c(=O)cc3n(c2c1)CCOC3)c1cc(-n2ccc(OC(F)F)n2)cnn1",
    "RELATION_SIGN": "<",
    "CLhep predicted / mL/min/kg": 3.9
  },
  {
    "MOLECULE": "C[C@H](Nc1ccc2ncc3c(c2c1)CCOC3)C(=O)Nc1ccc(Cl)nc1",
    "RELATION_SIGN": "=",
    "CLhep predicted / mL/min/kg": 16
  },
  {
    "MOLECULE": "C[C@@H](Oc1cccc(-c2ccn[nH]2)c1)c1cncc(-c2nc(Cl)c[nH]2)c1",
    "RELATION_SIGN": "=",
    "CLhep predicted / mL/min/kg": 16
  }
]
